Target: T1, human CD103 (integrin Alpha-E) / human integrin Beta-7 heterodimer on cells (human, UniProt P38570 19-1179; P26010 20-798)
T1 construct: the assay field tells which cells; also called hCD103/hBeta7; CHO.K1-hCD103/hBeta7
T1 sequence (P38570 19-1179 limits assumed, chain 1 of 2): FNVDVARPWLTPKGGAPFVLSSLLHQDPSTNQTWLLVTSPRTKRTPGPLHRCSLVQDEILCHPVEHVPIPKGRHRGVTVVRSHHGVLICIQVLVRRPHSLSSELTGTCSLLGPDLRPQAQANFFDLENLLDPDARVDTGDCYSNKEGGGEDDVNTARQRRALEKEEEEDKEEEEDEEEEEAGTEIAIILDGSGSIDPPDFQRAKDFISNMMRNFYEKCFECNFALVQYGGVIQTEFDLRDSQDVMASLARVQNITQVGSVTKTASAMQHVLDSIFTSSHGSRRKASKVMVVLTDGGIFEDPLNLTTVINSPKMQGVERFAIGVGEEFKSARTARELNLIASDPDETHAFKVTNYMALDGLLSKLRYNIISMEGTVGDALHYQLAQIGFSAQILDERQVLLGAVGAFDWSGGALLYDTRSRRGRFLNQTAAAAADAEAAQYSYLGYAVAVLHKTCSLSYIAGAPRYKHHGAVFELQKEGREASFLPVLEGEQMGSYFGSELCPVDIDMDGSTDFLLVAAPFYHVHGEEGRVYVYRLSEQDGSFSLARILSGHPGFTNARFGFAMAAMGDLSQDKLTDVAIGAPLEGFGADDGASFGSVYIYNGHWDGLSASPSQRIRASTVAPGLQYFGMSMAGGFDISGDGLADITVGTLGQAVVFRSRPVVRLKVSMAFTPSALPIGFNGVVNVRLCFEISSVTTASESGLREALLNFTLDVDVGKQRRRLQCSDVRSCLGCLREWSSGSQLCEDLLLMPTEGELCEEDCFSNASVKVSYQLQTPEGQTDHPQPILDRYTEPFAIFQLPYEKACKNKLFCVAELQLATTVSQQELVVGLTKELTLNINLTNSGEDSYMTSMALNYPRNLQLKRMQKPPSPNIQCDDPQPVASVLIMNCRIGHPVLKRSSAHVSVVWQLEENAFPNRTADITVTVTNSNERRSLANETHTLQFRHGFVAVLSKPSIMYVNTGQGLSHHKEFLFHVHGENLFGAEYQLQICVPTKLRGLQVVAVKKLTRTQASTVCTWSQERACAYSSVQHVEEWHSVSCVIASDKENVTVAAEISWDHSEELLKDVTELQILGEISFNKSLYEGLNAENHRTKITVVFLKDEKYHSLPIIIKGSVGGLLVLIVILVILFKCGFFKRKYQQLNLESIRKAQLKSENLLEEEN
T1 sequence (P26010 20-798 limits assumed, chain 2 of 2): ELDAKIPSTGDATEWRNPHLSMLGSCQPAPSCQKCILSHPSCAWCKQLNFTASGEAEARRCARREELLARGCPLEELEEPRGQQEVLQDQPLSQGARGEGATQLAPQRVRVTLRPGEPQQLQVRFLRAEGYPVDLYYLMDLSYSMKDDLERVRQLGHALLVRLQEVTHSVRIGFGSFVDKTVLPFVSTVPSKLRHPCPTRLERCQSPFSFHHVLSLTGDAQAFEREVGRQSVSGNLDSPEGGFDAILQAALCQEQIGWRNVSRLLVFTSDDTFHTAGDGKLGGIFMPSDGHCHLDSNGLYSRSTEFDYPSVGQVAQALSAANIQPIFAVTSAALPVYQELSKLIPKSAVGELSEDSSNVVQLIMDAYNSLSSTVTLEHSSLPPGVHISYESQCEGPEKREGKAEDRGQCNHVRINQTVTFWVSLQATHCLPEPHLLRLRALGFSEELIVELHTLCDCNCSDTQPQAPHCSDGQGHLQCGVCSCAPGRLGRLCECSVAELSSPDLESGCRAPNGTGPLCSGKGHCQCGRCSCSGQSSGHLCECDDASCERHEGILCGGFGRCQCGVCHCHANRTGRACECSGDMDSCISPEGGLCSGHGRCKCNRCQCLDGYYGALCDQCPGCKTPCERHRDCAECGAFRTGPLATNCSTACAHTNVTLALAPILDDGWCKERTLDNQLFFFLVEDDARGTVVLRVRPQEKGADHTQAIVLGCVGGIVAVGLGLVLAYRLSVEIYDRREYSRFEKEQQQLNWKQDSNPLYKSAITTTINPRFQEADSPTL
Experiment: flow cytometry competition on CD103+CD8+ T cells; pre-incubation with unlabeled 03A; table n=1
outcomeMeasure: % binding of the fluorescently labeled mAb (IgG pre-incubation = 100)

Past entries and their recorded results:
hCD103.05A (antibody, mouse IgG1, V domains shown, Also tested labelled with AF647, conjugated with Df and labelled with 89Zr; these are written under this molecule; also called clone 05A; hCD103.05 mAb) VH: EVQLQQSGPELEKPGASAKISCKASGYSFTGYNMNWVKQSNGKSLEWIGNIDPYYGGTSYNQKFKGKATLTVDKSSSTAYMQLKSLTSEDSAVYYCARSFYGYDAGSPYNYAMDYWGQGTPVTVSP VL: DIVMTQSHKFMSTSVGDRVSITCKASQDVGTFVAWYQQKPGQSPKLLIYWASTRHTGVPDRFTGSGSGTDFTLTISNVQSEDLADYFCHQYSSYPYTFGGGTQLEIK = 100%
hCD103.06A (antibody, mouse IgG1, V domains shown, also called clone 06A; hCD103.06 mAb) VH: QVQLQQPGSELVRPGASVKLSCKASGYTFTSYWMHWVKQRHGQGLEWIGNIYPGSGSTNYDEKFKSKGTLTVDTSSSTAYMHLSSLTSEDSAVYYCTRGVYDNPYYFDYWGQGTTLTVSS VL: DIQMTQSSSNLSVSLGGRVTITCKASDHINNWLAWYQQKPGNAPRVLISGATSLETGVPSRFSGSGSGKDYTLSITSLQTEDVATYYCQQYWSIPLTFGAGTKLELK = 101%
hCD103.07A (antibody, mouse IgG1, V domains shown, also called clone 07A) VH: EVQLQESGPSLVKPSQTLSLTCSVTGDSITSGYWNWIRKFPGNKLEYMGYITYSGSTYYNPSLKSRISITRDTSKNQYYLQLNSVTTEDTATYYCARNYYGSSSMDYWGQGTSVTVSS VL: DIVMTQSQKFMSTSVADRVSVTCKASQNVGSDVAWYQQKPGQSPKSLIYSASYRYSGVPDRFTGSGSGTDFTLTISNVQSEDLAEYFCQQYNSYPSTFGGGTKLEIK = 94.4%

Proceeding to the next binder to report its % binding of the fluorescently labeled mAb (IgG pre-incubation = 100).
Quick one: % binding of the fluorescently labeled mAb (IgG pre-incubation = 100) for hCD103.01A (antibody, V domains shown, Also tested labelled with AF647, conjugated with Df and labelled with 89Zr; these are written under this molecule; also called clone 01A; hCD103.01 mAb) VH: EVQLQESGPSLVKPSQTLSLTCSVTGDSITSGYWNWIRKFPGNKLEYMGYITYSGSTYYNPSLKSRISITRDTSKNQYYLQLNSVTTEDTATYYCTRHYYGSDAMDYWGQGTSVTVSS VL: DIVMTQSHKFMSTSVGDRVSITCKASQDVSIAVAWYQQRPGQSPKLLIYSASYRYTGVPDRFTGSGSGTDFTFTISSVQAEDLAVYYCQQHYSTPWTFGGGTKLEIK ?
96.7%
